These measurements were taken from paper PMC4552634.

- System: P. falciparum stage V gametocytes
- Design: BacTiter-Glo ATP luminescence viability of purified stage V gametocytes in 384-well plates, per cent inhibition versus DMSO
- settings: 48 h, 5 µM; inhibitor
Among all 13,000 compounds or so, about 3,200 (25%) showed an effect of 50% or more. Some of the results follow.
reported-property: % Inhibition (%)
Kindly answer with a numeric value in %, unit omitted.

> print(dat)
                                   compound  recorded.measurement
1  Cc1cccc2[nH]c(-c3cccc(-c4cccc(CN5CCC(CO)CC5)c4)c3)nc12                 -22.3

// moving on: another record for % Inhibition
Query string: Using the record for CCCCOc1ccc(-c2nc3ccccc3[nH]2)cc1 , report its % Inhibition.
Result string: 57.83
